Entry source: PubChem BioAssay (NCI)

System: SF-295 CNS
EXPERIMENT SUMMARY: NCI tumour cell line growth inhibition, 48 h
Reported TGI values for a set of compounds

SMILES ENTRY: COc1ccc2c(c1)/C(=C\c1c(Cl)n(-c3ccccc3)c3ccccc13)C(=O)N2
STUDY SYSTEM: SF-295 CNS
TGI: 25.9 µM

SMILES ENTRY: CC(C)NC(=O)OCc1c(COC(=O)NC(C)C)c(-c2cc[n+](COC(=O)C(C)C)cc2)n2c1CCC2
STUDY SYSTEM: SF-295 CNS
TGI: > 100 µM

SMILES ENTRY: c1cc2c(c(NC3=NCCN3)c1)CCCC2
STUDY SYSTEM: SF-295 CNS
TGI: > 100 µM
